- Assay Summary: protein stability index of a GFP-peptide fusion (GPS, HEK-293T) (PSI 1-6); higher = more stable;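 also: 24-mer peptide tiles fused after GFP, lentivirally expressed, FACS-sorted into six equal bins by GFP/DsRed ratio, decoded by Illumina sequencing, PSI is the read-weighted mean bin number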
- Settings: treatment: DMSO; c terminus: a fixed tail appended
Classification field: enter satisfied for protein stability index values not below 3, not satisfied for values below it.

## Input Hi team, for LEADELCDDGGDGRGAVVPGAGLR [ZBTB22] , is the recorded protein stability index at or above 3?
## Output satisfied

## Input Hi team, for KPHFESSTVKTETISFGSVSPGGV [EPB41L3] , is the recorded protein stability index at or above 3?
## Output satisfied

## Input Hi team, for PASQHSTPAGLPPSRAKPPTEGAG [FBF1] , is the recorded protein stability index at or above 3?
## Output satisfied

## Input Hi team, for DSFTTNKEHAVTMPCTWVMACAYA [GNB5] , is the recorded protein stability index at or above 3?
## Output not satisfied

## Input Hi team, for MEEQREALRKIIKTLAVKNEEIQS [FSD1] , is the recorded protein stability index at or above 3?
## Output satisfied

## Input Hi team, for VFKCVKRLDGCIYAIKRSKKPLAG [WEE1] , is the recorded protein stability index at or above 3?
## Output not satisfied

## Input Hi team, for FIENNVSKLSLLLNDISRKSEGLS [TRIP13] , is the recorded protein stability index at or above 3?
## Output not satisfied

====

- Assay Summary: protein stability index of a GFP-peptide fusion (GPS, HEK-293T) (PSI 1-6); higher = more stable
- Settings: treatment: MLN4924 1 uM, 8 h; c terminus: a fixed tail appended
Quantity Name: protein stability index
Number, no unit, nothing else.

## Input Write down protein stability index measured for item VGGFDGTTYLKTIEVFDPDANTWR [KLHL20]
## Output 2.92

## Input Write down protein stability index measured for item ARELAITDSEHSDAEVSCTDNGTF [RETREG3]
## Output 5.59

## Input Write down protein stability index measured for item EKEEDHAPEFIKVRENLRRIATLT [FAM107A]
## Output 2.81

## Input Write down protein stability index measured for item DCTETIEGLELTEQTFSPAKSLSF [ADD1]
## Output 4.21

## Input Write down protein stability index measured for item KIDLENTLEQEQEALVNRLWKRMD [CCDC6]
## Output 3.78

## Input Write down protein stability index measured for item TIIFTAAREGRETLKCLSHHVADA [TOR1AIP2]
## Output 2.62

## Input Write down protein stability index measured for item YSHSSTRDGRRDRYSSDTTPLLNG [GOSR1]
## Output 4.31

## Input Write down protein stability index measured for item HARYRVIHFIAVAVCLLGVGTMVG [SLC35F2]
## Output 2.28

## Input Write down protein stability index measured for item QAFRAIDRADYYLEEFKENAYKDL [PCMTD2]
## Output 3.17

## Input Write down protein stability index measured for item NLYSWDDFMELGRSIPDTQLEQVI [ACSBG2]
## Output 3.38

## Input Write down protein stability index measured for item LRQLTAELAEHRCHPVERGIKSKE [PSD2]
## Output 4.2

## Input Write down protein stability index measured for item IETIKIIETEDQIDKKPVSEKTDE [MIA2]
## Output 4.7

## Input Write down protein stability index measured for item VTLALLGSYTVQSELGDYDPDECG [EPB41L3]
## Output 2.62

## Input Write down protein stability index measured for item PPCAWACPVPAHRRGSWRLPYTDG [CTBP1-DT]
## Output 2.93

## Input Write down protein stability index measured for item AAHAAQAHRERNEFPEDPEFEAVV [PI4K2A]
## Output 5.3

## Input Write down protein stability index measured for item CRELGYVEAKSWTASSSYGKGEGP [LOXL2]
## Output 3.45

## Input Write down protein stability index measured for item PELKSLAKTFHLVNPNGQKQQLVD [FAN1]
## Output 4.2

## Input Write down protein stability index measured for item QKRSRAIHSSDEGEDQAGDEDEDD [WAS]
## Output 5.57

## Input Write down protein stability index measured for item HICTNYNSVCSKFRKEIKSKSADN [RHOBTB1]
## Output 3.54

## Input Write down protein stability index measured for item GGQCCRRQDSPSPDFYKQSSPNLQ [PCDHGC5]
## Output 3.78

## Input Write down protein stability index measured for item GAVLALVAIFIMSLNKRHSSGDGN [MFSD9]
## Output 3.43

## Input Write down protein stability index measured for item QEPQSPQKLNPGFDLAKGNAGKVN [PLAGL1]
## Output 4.89

## Input Write down protein stability index measured for item AELLLAARLLGALAARSGAAYGPG [TSPAN10]
## Output 2.77

## Input Write down protein stability index measured for item SPESESDHEHEEADLELSLPECLE [GNAS]
## Output 5.57

## Input Write down protein stability index measured for item VMYRIGCLRDDVVFFIYLYQRWIY [CLPTM1]
## Output 2.71

## Input Write down protein stability index measured for item YFKEAELKDLLLQVGRGLRYIHSM [WEE1]
## Output 2.15

## Input Write down protein stability index measured for item QENESLFTFLGKKCVTMSSAVVQL [WASL]
## Output 2.32

## Input Write down protein stability index measured for item QNLQEEKERKLECLPPEPSPDDPE [FAF2]
## Output 5.46

## Input Write down protein stability index measured for item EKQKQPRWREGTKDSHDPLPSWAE [PBXIP1]
## Output 3.18

====

- Assay Summary: protein stability index of a GFP-peptide fusion (GPS, HEK-293T) (PSI 1-6); higher = more stable
- Settings: treatment: MLN4924 1 uM, 8 h; c terminus: a fixed tail appended
Classification field: enter yes for protein stability index values not below 3, no for values below it.

## Input Hi team, for RQKIWNNMPKDHPVSCCLGLLLES [DYNC2LI1] , is the recorded protein stability index at or above 3?
## Output no

## Input Hi team, for GQRGAQGAGRRRRAGGPPRPMSEP [SMAD6] , is the recorded protein stability index at or above 3?
## Output yes

## Input Hi team, for NICELAARMLFSAVEWARNIPFFP [NR2F2] , is the recorded protein stability index at or above 3?
## Output yes

====

Kindly supply the reported protein stability index values for the records listed here.
- Assay Summary: protein stability index of a GFP-peptide fusion (GPS, HEK-293T) (PSI 1-6); higher = more stable
- Settings: treatment: MLN4924 1 uM, 8 h; c terminus: a fixed tail appended
Number, no unit, nothing else.

## Input Write down protein stability index measured for item SSCENKRADLVFIIDSSRSVNTHD [MATN2]
## Output 2.92

## Input Write down protein stability index measured for item AGGHPAQLGLGRGASTFKEEPQTV [JUNB]
## Output 4.58

## Input Write down protein stability index measured for item EEPELSPAYLISEAMRRSRMSLYC [GFOD1]
## Output 2.37

## Input Write down protein stability index measured for item LDEFARENIDSLYNVNLSKGRAAL [SCNN1D]
## Output 3.85

## Input Write down protein stability index measured for item KVENLTLKNHFQSVLEQLELQEKQ [TAF7L]
## Output 3.96

## Input Write down protein stability index measured for item AVAAATAAVEGSGGSGGGSHHHHQ [KCNA4]
## Output 5.07

## Input Write down protein stability index measured for item FLSFSMYQSFVQFLQYYYQSGCLY [TMEM120A]
## Output 3.54

## Input Write down protein stability index measured for item NRKVSQRRVDFCKDPSAIGKKQVP [CASP6]
## Output 4.26

## Input Write down protein stability index measured for item NFAVQHRYLFEEDNLLRSTQKLSH [MATN2]
## Output 2.85

## Input Write down protein stability index measured for item PAAKPDPDGGRADEWACELRLFGR [P3H4]
## Output 3.36

## Input Write down protein stability index measured for item KDRMKSDHKRETERVVREALEKLR [ZMYND11]
## Output 3.58

## Input Write down protein stability index measured for item SQLRLVCKRMDLVCQRMLNQGFLK [FBXO28]
## Output 2.46

## Input Write down protein stability index measured for item QDKPYKCTDCGKSFNHNAHLTVHK [ZNF8]
## Output 3.72

## Input Write down protein stability index measured for item RGYIKPHVDSIKFCGATIAGLSLL [ALKBH7]
## Output 2.39

## Input Write down protein stability index measured for item DEDELRKSLSELVDDKFGTGTKKV [PSD2]
## Output 5.4

## Input Write down protein stability index measured for item GSANDYKDTLGKGSSLSAPSKKTS [KRT71]
## Output 5.3

## Input Write down protein stability index measured for item TQDGKEQPELPCAMAMGTPSTTER [PXN]
## Output 5.18

====

- Assay Summary: protein stability index of a GFP-peptide fusion (GPS, HEK-293T) (PSI 1-6); higher = more stable
- Settings: treatment: DMSO; c terminus: a fixed tail appended
Classification field: enter Satisfied for protein stability index values not below 3, Not satisfied for values below it.

## Input Hi team, for TQDGKEQPELPCAMAMGTPSTTER [PXN] , is the recorded protein stability index at or above 3?
## Output Satisfied

## Input Hi team, for QVRSAAVQLIWVVSQLYPESIVPI [INTS4] , is the recorded protein stability index at or above 3?
## Output Satisfied

## Input Hi team, for LPKLYLPTGPRRGRDELGGGRRPG [CDKN1A] , is the recorded protein stability index at or above 3?
## Output Satisfied

## Input Hi team, for IIPRTVIDGLDLLKKEHPGARDGI [SMG5] , is the recorded protein stability index at or above 3?
## Output Satisfied

## Input Hi team, for ELYGLALRFFKEKDGKAFHPTYEE [ACBD3] , is the recorded protein stability index at or above 3?
## Output Not satisfied

## Input Hi team, for KKIYCRICMAQIAYSGNTSNLSYH [ZBED1] , is the recorded protein stability index at or above 3?
## Output Not satisfied

## Input Hi team, for KILPWSPEKIGTRFLLYTNENPNN [PNLIPRP1] , is the recorded protein stability index at or above 3?
## Output Not satisfied

## Input Hi team, for LPQDPHTKKALEAHCRADELASQD [PPP2R5C] , is the recorded protein stability index at or above 3?
## Output Satisfied

## Input Hi team, for PSAGFRCCAAPGPHVALAVRYNRV [ANKRD9] , is the recorded protein stability index at or above 3?
## Output Not satisfied

## Input Hi team, for GVAGGLNRNQGLNRLMLAVRDMMA [TCF25] , is the recorded protein stability index at or above 3?
## Output Satisfied

## Input Hi team, for TEQAVALLRDRTGQQSDTAQLELY [SCARA5] , is the recorded protein stability index at or above 3?
## Output Satisfied

## Input Hi team, for VPSEWLSSVYKQQWFAMLRAEQDS [GMCL1] , is the recorded protein stability index at or above 3?
## Output Not satisfied

## Input Hi team, for VIVKEGGLKLIQIQDNGTGIRKED [MLH1] , is the recorded protein stability index at or above 3?
## Output Satisfied

## Input Hi team, for AQMSTLHVSPPPSADPARGLPRSR [PDLIM4] , is the recorded protein stability index at or above 3?
## Output Satisfied

## Input Hi team, for LTILAKRKSLFDDKAVEIEELTYI [STX5] , is the recorded protein stability index at or above 3?
## Output Not satisfied

## Input Hi team, for MASLSRPSLPSCLCSFLLLLLLQV [MOG] , is the recorded protein stability index at or above 3?
## Output Not satisfied

## Input Hi team, for QFTMGGPAISMASPMSIPTNTMHY [CARM1] , is the recorded protein stability index at or above 3?
## Output Not satisfied

## Input Hi team, for SLSLFGCTNIFYEEENPGGCEDEY [ZER1] , is the recorded protein stability index at or above 3?
## Output Satisfied

## Input Hi team, for TASSLVKINLQGDIVDRGSTNLGV [ADD1] , is the recorded protein stability index at or above 3?
## Output Satisfied

## Input Hi team, for KYWCVTATRVAPERLFGSAANVVS [ZBED1] , is the recorded protein stability index at or above 3?
## Output Not satisfied

## Input Hi team, for RICLGKFTFPGMSLDKRQGEGLRI [TPRG1] , is the recorded protein stability index at or above 3?
## Output Not satisfied

## Input Hi team, for SGSQMSHNAVTSHQRPGWPGQPHS [NCF4] , is the recorded protein stability index at or above 3?
## Output Satisfied

## Input Hi team, for KSLDGVTNDRTASQGQWGRAWEVD [DHCR7] , is the recorded protein stability index at or above 3?
## Output Satisfied

## Input Hi team, for LAQDWERCNTTCGRGVKKRLVLCM [ADAMTSL2] , is the recorded protein stability index at or above 3?
## Output Not satisfied

## Input Hi team, for LRLEEPRMDFAAKLMKNIRFPLMT [KLHL13] , is the recorded protein stability index at or above 3?
## Output Not satisfied

## Input Hi team, for AEKDRRLKKKHQLLEDARRKGMPF [PPFIA4] , is the recorded protein stability index at or above 3?
## Output Satisfied

## Input Hi team, for AAQMMDIWVPIKIGALTYFAQADA [ACSBG2] , is the recorded protein stability index at or above 3?
## Output Not satisfied

## Input Hi team, for YSHRETVNGSWYIQDLCEMLGKYG [CASP6] , is the recorded protein stability index at or above 3?
## Output Not satisfied

## Input Hi team, for DLYNWEVAIFGPPNTYYEGGYFKA [CDC34] , is the recorded protein stability index at or above 3?
## Output Not satisfied

## Input Hi team, for PELKSLAKTFHLVNPNGQKQQLVD [FAN1] , is the recorded protein stability index at or above 3?
## Output Satisfied

## Input Hi team, for LEDGQTPLHLSALRDDVLCARMLY [ASB7] , is the recorded protein stability index at or above 3?
## Output Not satisfied

## Input Hi team, for LPYQRRYRERRDSDTYRCEERSPS [CLK3] , is the recorded protein stability index at or above 3?
## Output Satisfied

## Input Hi team, for SKPSSDLLDLQPDFSSGGAAAAAA [SNAP91] , is the recorded protein stability index at or above 3?
## Output Satisfied

## Input Hi team, for SHLQAAAQTPPRPGPPSAPPPPPK [SCNN1D] , is the recorded protein stability index at or above 3?
## Output Satisfied
